Catalogue of viability at 28.5 h, 10 µM values
# methodNotes: in vitro
# testParameters: human, hela cells, % viability
Record the value in %, omitting the unit from your answer.

- Oc1ccccc1-c1cc(-c2ccccc2)c2c(ccc3ncccc32)n1: 91.9

response.value for Cc1nc2ccc(C(=O)NC3=NN(c4ccccc4)C(=O)C3)cn2c1N(C)C(=O)CCc1ccccc1 (field: viability at 28.5 h, 10 µM) = 89.8

response.value for O=C(Nc1ccccc1N1CCNCC1)c1ccoc1 [CBK029442T] (field: viability at 28.5 h, 10 µM) = 96.2

response.value for O=C(O)c1ccc(S(=O)(=O)c2ccc3c(c2)C(=O)N(c2nccs2)C3=O)cc1 (field: viability at 28.5 h, 10 µM) = 90.1

----------
# methodNotes: in vitro
# testParameters: human, hela cells, % viability
Catalogue of viability at 28.5 h, 10 µM values
Record the value in %, omitting the unit from your answer.

Worked cases, answers included:
* Cc1noc(C2(O)CCN(Cc3cccc(Cl)c3F)C2)n1 (stereo not shown) | 99.3
* CCOc1ccc(S(=O)(=O)N2CCN(Cc3cc(F)c(F)c(F)c3)CC2)c2cccnc12 | 95.4
* Cc1cc(N(C)CCc2ccccc2)nc2cc(Cl)ccc12 | 93.9
* NNc1nc(-c2ccccc2)cc(-c2ccc(Br)cc2)n1 | 107
* CC(C)Nc1nccnc1OCc1ccsc1 | 103
* Cc1nn(CC(=O)N2CCCCC2C)c(=O)c2cc3occc3n12 (stereo not shown) | 76.7
* N/C(=N\OC(=O)CCCc1ccccc1)c1ccc(Cl)cc1 | 107
* Cc1ccc(Cn2nc(C)c(NC(=O)c3nc4ncccn4n3)c2C)cc1 | 90.9

response.value for c1ccc(CSc2nc3ccccc3s2)nc1 (field: viability at 28.5 h, 10 µM) = 76.2

response.value for Cc1ccc(CC(=O)N2CCC(c3ncc(C(=O)Nc4ccc(F)cc4)c(C)n3)CC2)cc1 (field: viability at 28.5 h, 10 µM) = 111

response.value for N#CC1=C(N)Oc2[nH]nc(-c3ccccc3)c2C12C(=O)N(Cc1ccccc1)c1ccccc12 (stereo not shown) (field: viability at 28.5 h, 10 µM) = 93.7

----------
Catalogue of viability at 28.5 h, 10 µM values
# methodNotes: in vitro
# testParameters: human, hela cells, % viability
Record the value in %, omitting the unit from your answer.

Worked cases, answers included:
• O=C(O)CCC(=O)Nc1ccccc1C(=O)Nc1ccccc1 = 92.4
• COC(=O)c1c(NC(=O)c2ccncc2)sc2c1CCC2 = 88.1
• NCc1ccc(CN(Cc2cnc(-c3ccccc3)[nH]2)C(=O)Nc2ccc3c(c2)OCO3)cc1 [CBK046158C] = 89

Proceed to the following item.
response.value for NS(=O)(=O)c1ccc(CCNC(=O)Nc2ccc(Cl)c(Cl)c2)cc1 (field: viability at 28.5 h, 10 µM) = 90.3

----------
# methodNotes: in vitro
# testParameters: human, hela cells, % viability
Hi! Could you tag entries with viability at 28.5 h, 10 µM below 90% as label 1, and those at or above as label 0? Much appreciated.

- O=C(NNC(=S)NCCc1ccccc1)c1ccc(Br)o1: label 0
- Cc1ccn2c(-c3csc(Nc4ccc(S(N)(=O)=O)cc4)n3)c(C)nc2c1 [CBK263304B]: label 1
- O=S(=O)(NC1CCCC1)c1cccc(-c2nnc(-c3ccccc3)o2)c1: label 0
- Cc1ccc(-c2ncc(OC3CCN(C)CC3)nc2N)c(C)c1: label 0
- CCNc1cncc(-c2ccc(F)c(Cl)c2)n1: label 0
- Cc1cc(C(=O)CSc2nnc(N3CCCC3)n2C2CC2)c(C)n1C: label 1
- CC1CN(c2cc(CNCc3cnn4ccccc34)ccn2)CCO1 (centres unmarked): label 1
- Cc1ccc(NC(=O)CN2C(=O)S/C(=C/c3ccc(-c4ccc(Cl)c(C(=O)O)c4)o3)C2=O)cc1: label 1
- N#CCCCN1CCN(c2nccnc2OCc2ccc(Cl)c(Cl)c2)CC1 [CBK083086T]: label 0
- COc1cc(-c2ccc3ccc(=O)[nH]c3n2)cc(OC)c1OC: label 0

Task: Hello, is viability at 28.5 h, 10 µM of the following compound strictly smaller than 90%? CCc1cc(Br)ccc1S(=O)(=O)NCCc1cccs1
Result: label 0

Task: Hello, is viability at 28.5 h, 10 µM of the following compound strictly smaller than 90%? O=C(CCc1ccccc1)NC(c1cccc([N+](=O)[O-])c1)c1c(O)ccc2ccccc12 (centres unmarked)
Result: label 0

Task: Hello, is viability at 28.5 h, 10 µM of the following compound strictly smaller than 90%? CCOC(=O)C1C2CCC3(CC(=O)c4cc(Cl)ccc4O3)C21 (centres unmarked)
Result: label 0

Task: Hello, is viability at 28.5 h, 10 µM of the following compound strictly smaller than 90%? COCc1cc(C[C@@H]2C[C@H](NC(=O)C(C)(C)C)C2(C)C)no1
Result: label 1

Task: Hello, is viability at 28.5 h, 10 µM of the following compound strictly smaller than 90%? c1ccc2oc(-c3cc4ccccc4o3)cc2c1
Result: label 0
